Target: hA2B AR (Homo sapiens, UniProt P29275)
Construct: host or cells: HEK-A2B (HEK-293T-A2B) cell line
Sequence (P29275 1-332): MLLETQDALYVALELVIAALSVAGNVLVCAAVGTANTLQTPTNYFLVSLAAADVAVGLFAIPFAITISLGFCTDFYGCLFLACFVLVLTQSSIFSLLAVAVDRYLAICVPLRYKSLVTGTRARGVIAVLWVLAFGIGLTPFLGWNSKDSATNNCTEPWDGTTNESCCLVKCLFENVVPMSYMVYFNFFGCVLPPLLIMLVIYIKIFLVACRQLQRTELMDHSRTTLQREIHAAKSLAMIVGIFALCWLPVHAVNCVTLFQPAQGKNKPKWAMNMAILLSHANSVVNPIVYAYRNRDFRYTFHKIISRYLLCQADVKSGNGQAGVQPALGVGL
Assay: Radioligand competition binding assay at hA2B AR
Settings: 10 μM compound; [3H]DPCPX; HEK-293 cells; read-out: Percentage Inhibition (%) at 10 μM, hA2B AR
Entry flag: 1.0 if inhibition at 10 µM reaches 60%; 0.0 if it does not.

| compound | targetOrTestSystem | classLabel |
| --- | --- | --- |
| COc1ccc(-c2nc(N)nc(Nc3ccc(OC)c(F)c3)n2)cc1 [Compound 11a] | hA2B AR (Homo sapiens, UniProt P29275) | 1.0 |
| COc1ccc(Nc2nc(N)nc(-c3ccc(O)cc3)n2)cc1F [Compound 9a] | hA2B AR (Homo sapiens, UniProt P29275) | 1.0 |
| COc1ccc(Nc2nc(N)nc(-c3ccc(C(F)(F)F)cc3)n2)cc1F [Compound 11d] | hA2B AR (Homo sapiens, UniProt P29275) | 1.0 |
| Nc1nc(Nc2cccc(C(F)(F)F)c2)nc(-c2ccc(O)cc2)n1 [Compound 9d] | hA2B AR (Homo sapiens, UniProt P29275) | 1.0 |
| Cc1cc(C)cc(Nc2nc(N)nc(-c3ccc(O)cc3)n2)c1 [Compound 9e] | hA2B AR (Homo sapiens, UniProt P29275) | 0.0 |
| CCOC(=O)c1ccc(-c2nc(N)nc(Nc3ccc(OC)c(F)c3)n2)cc1 [Compound 11g] | hA2B AR (Homo sapiens, UniProt P29275) | 0.0 |
| COc1ccc(Nc2nc(N)nc(-c3ccc(F)cc3)n2)cc1F [Compound 11b] | hA2B AR (Homo sapiens, UniProt P29275) | 0.0 |

----------
# maps each entry to its inhibition at 10 µM
Target: hA1 AR (Homo sapiens, UniProt P30542)
Construct: host or cells: CHO-A1 (CHO cells expressing hA1 AR)
Sequence (P30542 whole entry): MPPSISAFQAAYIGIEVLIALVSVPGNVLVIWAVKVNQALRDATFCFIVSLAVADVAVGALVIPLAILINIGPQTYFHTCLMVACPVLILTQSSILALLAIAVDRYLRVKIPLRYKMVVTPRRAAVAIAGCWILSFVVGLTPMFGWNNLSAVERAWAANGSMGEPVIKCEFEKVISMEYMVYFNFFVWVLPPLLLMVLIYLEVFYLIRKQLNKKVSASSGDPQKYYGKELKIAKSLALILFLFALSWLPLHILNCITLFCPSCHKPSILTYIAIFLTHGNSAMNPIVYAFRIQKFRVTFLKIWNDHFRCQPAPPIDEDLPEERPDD
Test: Radioligand competition binding assay at hA1 AR
Settings: 10 μM compound; [3H]DPCPX; CHO cells; read-out: Percentage Inhibition (%) at 10 μM, hA1 AR
measuredAttribute: inhibition at 10 µM (%)

| molecule | readoutValue |
| --- | --- |
| COc1ccc(Nc2nc(N)nc(-c3ccc(F)c([N+](=O)[O-])c3)n2)cc1F [Compound 11i] | 53 |
| COc1cc(Nc2nc(N)nc(-c3ccc(O)cc3)n2)cc(OC)c1 | 99 |
| Nc1nc(Nc2cccc(C(F)(F)F)c2)nc(-c2ccc(O)cc2)n1 | 69 |
| COc1ccc(Nc2nc(N)nc(-c3ccc(C#N)cc3)n2)cc1F [Compound 11e] | 45 |
| COc1ccc(Nc2nc(N)nc(-c3ccc(OC(F)(F)F)cc3)n2)cc1F [Compound 11c] | 48 |
| COc1ccc(Nc2nc(N)nc(-c3cc(F)c(O)c(F)c3)n2)cc1F [Compound 11h] | 88 |
| COc1ccc(Nc2nc(N)nc(-c3ccc(C(F)(F)F)cc3)n2)cc1F [Compound 11d] | 74 |

----------
# maps each entry to its log10(Ki)
Molecular target: hA1 AR (Homo sapiens, UniProt P30542)
Construct: host or cells: CHO-A1 (CHO cells expressing hA1 AR)
Assay: Radioligand competition binding assay at hA1 AR
Conditions: [3H]DPCPX; CHO cells
measuredAttribute: log10(Ki) (log10 of the value in nM)

| compound | targetOrTestSystem | measuredAttribute | readoutValue |
| --- | --- | --- | --- |
| COc1ccc(Nc2nc(N)nc(-c3ccc(F)cc3)n2)cc1F [Compound 11b] | hA1 AR (Homo sapiens, UniProt P30542) | log10(Ki) | 1.99 |
| COc1cc(Nc2nc(N)nc(-c3ccc(O)cc3)n2)cc(OC)c1 [Compound 9b] | hA1 AR (Homo sapiens, UniProt P30542) | log10(Ki) | 1.84 |
| COc1cc(Nc2nc(N)nc(-c3ccc(O)cc3)n2)ccc1Cl [Compound 9c] | hA1 AR (Homo sapiens, UniProt P30542) | log10(Ki) | 1.76 |
| COc1ccc(-c2nc(N)nc(Nc3ccc(OC)c(F)c3)n2)cc1 [Compound 11a] | hA1 AR (Homo sapiens, UniProt P30542) | log10(Ki) | 1.89 |
| Cc1ccc(Nc2nc(N)nc(-c3ccc(O)cc3)n2)c(C)c1 [Compound 9g] | hA1 AR (Homo sapiens, UniProt P30542) | log10(Ki) | 2.06 |
| Cc1cc(C)cc(Nc2nc(N)nc(-c3ccc(O)cc3)n2)c1 [Compound 9e] | hA1 AR (Homo sapiens, UniProt P30542) | log10(Ki) | 2.94 |
| COc1ccc(Nc2nc(N)nc(-c3ccc(O)cc3)n2)cc1F [Compound 9a] | hA1 AR (Homo sapiens, UniProt P30542) | log10(Ki) | 2.14 |

----------
Molecular target: hA3 AR (Homo sapiens)
Sequence (P0DMS8 1-318): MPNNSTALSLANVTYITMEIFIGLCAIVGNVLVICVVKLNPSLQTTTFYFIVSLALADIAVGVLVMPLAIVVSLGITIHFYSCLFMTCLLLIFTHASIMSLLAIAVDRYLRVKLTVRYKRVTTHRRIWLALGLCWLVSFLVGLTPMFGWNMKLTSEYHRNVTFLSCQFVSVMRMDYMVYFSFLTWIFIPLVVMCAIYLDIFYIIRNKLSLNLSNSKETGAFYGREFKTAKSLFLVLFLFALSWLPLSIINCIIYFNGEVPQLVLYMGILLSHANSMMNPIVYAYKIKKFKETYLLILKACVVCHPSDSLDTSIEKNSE
Assay: Radioligand competition binding assay at hA3 AR
Parameters: expressed in transfected cells; host or cells: Hela-A3 cell line
Settings: 10 μM compound; [3H]NECA; read-out: Percentage Inhibition (%) at 10 μM, hA3 AR

| molecule | targetOrTestSystem | operator | inhibition at 10 µM [%] |
| --- | --- | --- | --- |
| Nc1nc(Nc2ccc(N3CCCCC3)cc2)nc(-c2ccc(O)cc2)n1 [Compound 9f] | hA3 AR (Homo sapiens) | = | 38 |
| COc1ccc(Nc2nc(N)nc(-c3ccc(OC(F)(F)F)cc3)n2)cc1F [Compound 11c] | hA3 AR (Homo sapiens) | = | 60 |
| Nc1nc(Nc2cccc(C(F)(F)F)c2)nc(-c2ccc(O)cc2)n1 [Compound 9d] | hA3 AR (Homo sapiens) | > | 95 |
| Cc1ccc(Nc2nc(N)nc(-c3ccc(O)cc3)n2)c(C)c1 [Compound 9g] | hA3 AR (Homo sapiens) | = | 91 |
| COc1ccc(Nc2nc(N)nc(-c3ccc(C#N)cc3)n2)cc1F [Compound 11e] | hA3 AR (Homo sapiens) | = | 72 |
| COc1cc(Nc2nc(N)nc(-c3ccc(O)cc3)n2)cc(OC)c1 [Compound 9b] | hA3 AR (Homo sapiens) | = | 93 |
| Cc1cc(C)cc(Nc2nc(N)nc(-c3ccc(O)cc3)n2)c1 [Compound 9e] | hA3 AR (Homo sapiens) | = | 92 |
| COc1ccc(-c2nc(N)nc(Nc3ccc(OC)c(F)c3)n2)cc1 [Compound 11a] | hA3 AR (Homo sapiens) | > | 90 |
| COc1ccc(Nc2nc(N)nc(-c3ccc(C(F)(F)F)cc3)n2)cc1F [Compound 11d] | hA3 AR (Homo sapiens) | = | 79 |
| COc1ccc(Nc2nc(N)nc(-c3cc(F)c(O)c(F)c3)n2)cc1F [Compound 11h] | hA3 AR (Homo sapiens) | = | 79 |
| COc1ccc(Nc2nc(N)nc(-c3ccc(F)cc3)n2)cc1F [Compound 11b] | hA3 AR (Homo sapiens) | > | 90 |
| COC(=O)c1ccc(-c2nc(N)nc(Nc3ccc(OC)c(F)c3)n2)cc1 [Compound 11f] | hA3 AR (Homo sapiens) | = | 85 |
| COc1ccc(Nc2nc(N)nc(-c3ccc(O)cc3)n2)cc1F [Compound 9a] | hA3 AR (Homo sapiens) | > | 95 |
| COc1cc(Nc2nc(N)nc(-c3ccc(O)cc3)n2)ccc1Cl [Compound 9c] | hA3 AR (Homo sapiens) | > | 95 |
| CCOC(=O)c1ccc(-c2nc(N)nc(Nc3ccc(OC)c(F)c3)n2)cc1 [Compound 11g] | hA3 AR (Homo sapiens) | = | 78 |
| COc1ccc(Nc2nc(N)nc(-c3ccc(F)c([N+](=O)[O-])c3)n2)cc1F [Compound 11i] | hA3 AR (Homo sapiens) | = | 83 |
